molecular target: recombinant HIV-1 protease (Human immunodeficiency virus type 1 group M subtype B); construct: Enzyme: recombinant HIV-1 protease expressed in E. Coli; assay: biochemical; conditions: read-out: WT IC50
ENDPOINT LABEL: IC50
A complete answer gives the number followed by the unit.

Worked examples follow.
CCOP(=O)(COc1ccc(CN2C(=O)N(Cc3ccc4[nH]nc(N)c4c3)C(Cc3ccccc3)C(O)C(O)C2Cc2ccccc2)cc1)OCC (centres unmarked): 0.627 µM
Nc1n[nH]c2ccc(CN3C(=O)N(Cc4ccc(OCP(=O)(OCc5ccccc5)OCc5ccccc5)cc4)C(Cc4ccccc4)C(O)C(O)C3Cc3ccccc3)cc12 (centres unmarked): 0.276 µM

Measured IC50, O=C1N(Cc2ccccc2)C(Cc2ccc(O)cc2)C(O)C(O)C(Cc2ccc(O)cc2)N1Cc1ccccc1 (centres unmarked) : 0.031 µM

IC50 reported for this molecule Nc1n[nH]c2ccc(CN3C(=O)N(Cc4cccc(OCP(=O)(OCc5ccccc5)OCc5ccccc5)c4)C(Cc4ccccc4)C(O)C(O)C3Cc3ccccc3)cc12 (centres unmarked) : 0.018 µM

Lab note: Nc1n[nH]c2ccc(CN3C(=O)N(Cc4ccc(OCc5ccccc5)cc4)C(Cc4ccccc4)C(O)C(O)C3Cc3ccccc3)cc12 (centres unmarked) gave IC50 of 0.353 µM

Value of IC50 reported for the molecule O=C1N(Cc2ccccc2)C(Cc2ccccc2)C(O)C(O)C(Cc2ccccc2)N1Cc1ccccc1 (centres unmarked) is 0.034 µM

Note to self: IC50 recorded for CCOP(=O)(COc1cccc(CN2C(=O)N(Cc3ccc4[nH]nc(N)c4c3)C(Cc3ccccc3)C(O)C(O)C2Cc2ccccc2)c1)OCC (centres unmarked) was 0.07 µM

IC50 reading for Nc1n[nH]c2ccc(CN3C(=O)N(Cc4cccc(O)c4)C(Cc4ccccc4)C(O)C(O)C3Cc3ccccc3)cc12 (centres unmarked) : 0.0016 µM

----------
system: 30N82I88D; assay: microbe, parasite or virus in culture; format: cell-based, HIV; settings: Cell-based assay (MT-4), 30N82I88D; read-out: EC50 30N 82I88D
ENDPOINT LABEL: EC50 (nM)
Quick reminder: number only, in nM, skip the unit.

Just so you know, measured EC50 for O=C1N(Cc2ccccc2)C(Cc2ccccc2)C(O)C(O)C(Cc2ccc(OCP(=O)(O)O)cc2)N1Cc1ccccc1 (stereo not shown) came out at 293

----------
Reported pIC50 values for a set of molecules
target: 84V90M (Human immunodeficiency virus type 1 group M subtype B, UniProt P04585, I572V/L578M); format: biochemical, HIV; settings: Enzymatic assay
Lab note — pIC50 values are minus log10 of concentrations in M.

Here's what some known entries look like.
Nc1n[nH]c2ccc(CN3C(=O)N(Cc4cccc(O)c4)C(Cc4ccccc4)C(O)C(O)C3Cc3ccccc3)cc12 (stereo not shown): 7.92
CCOP(=O)(COc1ccc(CC2C(O)C(O)C(Cc3ccc(O)cc3)N(Cc3ccc(O)cc3)C(=O)N2Cc2ccc(O)cc2)cc1)OCC (stereo not shown): 7.74
Nc1n[nH]c2ccc(CN3C(=O)N(CCCCOCP(=O)(O)O)C(Cc4ccccc4)C(O)C(O)C3Cc3ccccc3)cc12 (stereo not shown): 6.69
Nc1n[nH]c2ccc(CN3C(=O)N(CCCOCP(=O)(O)O)C(Cc4ccccc4)C(O)C(O)C3Cc3ccccc3)cc12 (stereo not shown): 6.86

Per the records, this molecule ( CCCCN1C(=O)N(Cc2ccc3[nH]nc(N)c3c2)C(Cc2ccccc2)C(O)C(O)C1Cc1ccccc1 (stereo not shown) ) has pIC50 equal to 8.03

The reported value for CCOP(=O)(COc1ccc(CC2C(O)C(O)C(Cc3ccccc3)N(Cc3ccccc3)C(=O)N2Cc2ccccc2)cc1)OCC (stereo not shown) in terms of pIC50 is 7.32

The molecule CCOP(=O)(COCCCCN1C(=O)N(Cc2ccc3[nH]nc(N)c3c2)C(Cc2ccccc2)C(O)C(O)C1Cc1ccccc1)OCC (stereo not shown) showed pIC50 equal to 6.91

Notebook: CCOP(=O)(COc1ccc(CN2C(=O)N(Cc3ccc4[nH]nc(N)c4c3)C(Cc3ccccc3)C(O)C(O)C2Cc2ccccc2)cc1)OCC (stereo not shown) , pIC50 read as 5.83

For reference, reported pIC50 for CCOP(=O)(COc1ccc(CC2C(O)C(O)C(Cc3ccc(OC)cc3)N(Cc3cccc(N)c3)C(=O)N2Cc2cccc(N)c2)cc1)OCC (stereo not shown) stands at 7.25

// CCOP(=O)(COCCCN1C(=O)N(Cc2ccc3[nH]nc(N)c3c2)C(Cc2ccccc2)C(O)C(O)C1Cc1ccccc1)OCC (stereo not shown) : pIC50 value = 6.80

get_value(item= Nc1n[nH]c2ccc(CN3C(=O)N(Cc4ccc(OCP(=O)(OCc5ccccc5)OCc5ccccc5)cc4)C(Cc4ccccc4)C(O)C(O)C3Cc3ccccc3)cc12 (stereo not shown) , readout=pIC50) returns 5.69

Sure, the documented pIC50 for Nc1n[nH]c2ccc(CN3C(=O)N(Cc4cccc(OCP(=O)(O)O)c4)C(Cc4ccccc4)C(O)C(O)C3Cc3ccccc3)cc12 (stereo not shown) is 7.48

Looking up O=C1N(Cc2ccccc2)C(Cc2ccc(O)cc2)C(O)C(O)C(Cc2ccc(O)cc2)N1Cc1ccccc1 (stereo not shown) , I found its pIC50 recorded as 6.40

Attribution: patent US20070010489A1
